Molecular target: aryl hydrocarbon receptor (AhR) (Mus musculus, UniProt P30561)
Sequence (P30561 10-848): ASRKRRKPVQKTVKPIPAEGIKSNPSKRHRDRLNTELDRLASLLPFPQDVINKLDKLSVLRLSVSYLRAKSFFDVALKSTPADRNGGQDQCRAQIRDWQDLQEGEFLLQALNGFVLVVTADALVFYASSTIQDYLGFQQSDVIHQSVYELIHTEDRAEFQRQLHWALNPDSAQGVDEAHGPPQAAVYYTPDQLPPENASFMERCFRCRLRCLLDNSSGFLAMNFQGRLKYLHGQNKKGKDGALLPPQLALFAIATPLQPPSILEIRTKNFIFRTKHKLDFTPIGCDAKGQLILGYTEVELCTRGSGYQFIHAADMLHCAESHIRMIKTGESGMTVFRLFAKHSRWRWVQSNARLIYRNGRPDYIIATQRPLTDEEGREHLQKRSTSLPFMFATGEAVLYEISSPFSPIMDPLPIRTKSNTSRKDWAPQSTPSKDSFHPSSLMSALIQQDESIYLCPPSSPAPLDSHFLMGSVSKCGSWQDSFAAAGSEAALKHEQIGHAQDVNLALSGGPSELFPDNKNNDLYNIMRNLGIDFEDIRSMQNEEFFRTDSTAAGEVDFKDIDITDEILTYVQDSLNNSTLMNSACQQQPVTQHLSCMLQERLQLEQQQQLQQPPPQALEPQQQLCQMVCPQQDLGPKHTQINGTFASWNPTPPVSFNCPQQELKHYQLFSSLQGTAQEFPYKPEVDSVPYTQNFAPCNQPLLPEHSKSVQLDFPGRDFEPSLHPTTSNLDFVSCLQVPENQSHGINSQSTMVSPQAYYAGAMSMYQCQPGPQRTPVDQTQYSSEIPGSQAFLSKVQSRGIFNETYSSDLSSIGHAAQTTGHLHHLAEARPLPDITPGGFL
RECORDED_ENDPOINT: Ki (µM)
Write down the numeric answer in µM and omit the unit.

INPUT: Could you tell me which Ki is on file for Nc1ccccc1C(=O)C[C@H](N)C(=O)O [L-kynurenine] ?
OUTPUT: 21.6
